- Target Entity: CKα1 (Homo sapiens)
- Construct: an N-terminally His-tagged truncated form of CKα1 (Δ75–457) was cloned into a pET-28a vector; His tag (N); made in house; host or cells: E. coli BL21 (DE3) Star
- Sequence (P35790 75-457): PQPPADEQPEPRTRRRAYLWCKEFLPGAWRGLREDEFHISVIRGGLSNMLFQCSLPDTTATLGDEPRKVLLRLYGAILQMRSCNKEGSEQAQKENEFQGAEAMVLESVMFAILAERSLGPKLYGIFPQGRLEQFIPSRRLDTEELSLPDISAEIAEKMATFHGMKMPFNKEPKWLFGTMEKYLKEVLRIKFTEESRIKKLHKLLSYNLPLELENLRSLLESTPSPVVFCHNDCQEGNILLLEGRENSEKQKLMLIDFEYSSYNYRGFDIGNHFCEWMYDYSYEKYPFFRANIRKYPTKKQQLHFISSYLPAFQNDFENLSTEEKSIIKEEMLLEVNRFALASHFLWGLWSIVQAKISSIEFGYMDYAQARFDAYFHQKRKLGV
- Experiment: Choline kinase assay ([methyl-14C]choline into PCho, purified enzyme)
- Format: biochemical
- Test Parameters: purified CKα1, inhibitor 10 µM, end-point assay
Hi, to clarify the labels: 1 (yes) covers % Inhibition at 10 µM from 80% upward, 0 (no) covers anything below 80%.

Challenge: Is % Inhibition at 10 µM for [Br-].[Br-].c1cc2c(s1)c(N1CCCC1)cc[n+]2Cc1ccc(OCCOc2ccc(C[n+]3ccc(N4CCCC4)c4sccc43)cc2)cc1 [Ff-2] at or above 80%?
Response given: 0 (no)

Challenge: Ok, now [Br-].[Br-].c1cc2c(s1)c(N1CCCCCC1)nc[n+]2Cc1ccc(OCCOc2ccc(C[n+]3cnc(N4CCCCCC4)c4sccc43)cc2)cc1 [Ff-34]
Response given: 1 (yes)

Challenge: For [Br-].[Br-].c1cc2c(s1)c(N1CCCCC1)nc[n+]2Cc1ccc(CCCCc2ccc(C[n+]3cnc(N4CCCCC4)c4sccc43)cc2)cc1 [Fa-33] then?
Response given: 1 (yes)

Challenge: Item: [Br-].[Br-].c1cc2c(s1)c(N1CCCCC1)nc[n+]2Cc1ccc(OCCOc2ccc(C[n+]3cnc(N4CCCCC4)c4sccc43)cc2)cc1 [Fa-28]
Response given: 1 (yes)

Challenge: What do you have for [Br-].[Br-].c1cc2c(N3CCCCCC3)nc[n+](Cc3ccc(CCCCc4ccc(C[n+]5cnc(N6CCCCCC6)c6ccsc65)cc4)cc3)c2s1 [Ff-35] ?
Response given: 1 (yes)

Challenge: Same read-out for [Br-].[Br-].c1cc2c(s1)c(N1CCCC1)cc[n+]2Cc1ccc(-c2ccc(C[n+]3ccc(N4CCCC4)c4sccc43)cc2)cc1 [Fg-9] ?
Response given: 0 (no)

Challenge: Could you do the same for [Br-].[Br-].c1cc2c(N3CCCCC3)nc[n+](Cc3ccc(CCCCc4ccc(C[n+]5cnc(N6CCCCC6)c6ccsc65)cc4)cc3)c2s1 [Ff-6] , please?
Response given: 0 (no)

Challenge: Next: [Br-].[Br-].c1cc2c(N3CCCC3)nc[n+](Cc3ccc(CCCCc4ccc(C[n+]5cnc(N6CCCC6)c6ccsc65)cc4)cc3)c2s1 [Ff-3]
Response given: 0 (no)

Challenge: What about [Br-].[Br-].c1cc2c(N3CCCCC3)nc[n+](Cc3ccc(CCc4ccc(C[n+]5cnc(N6CCCCC6)c6ccsc65)cc4)cc3)c2s1 [Fg-31] ?
Response given: 0 (no)

Challenge: Another compound to look at: [Br-].[Br-].c1cc2c(N3CCCCC3)nc[n+](Cc3ccc(OCCOc4ccc(C[n+]5cnc(N6CCCCC6)c6ccsc65)cc4)cc3)c2s1 [Ff-5]
Response given: 0 (no)

Challenge: Please give the result for [Br-].[Br-].c1cc2c(s1)c(N1CCCC1)nc[n+]2Cc1ccc(CCCCc2ccc(C[n+]3cnc(N4CCCC4)c4sccc43)cc2)cc1 [Ff-7] too.
Response given: 1 (yes)
